Origin of the recorded values: patent US6586402B1

Target: LH-RH receptors (Rattus norvegicus, UniProt P30969)
Sequence (P30969 1-327): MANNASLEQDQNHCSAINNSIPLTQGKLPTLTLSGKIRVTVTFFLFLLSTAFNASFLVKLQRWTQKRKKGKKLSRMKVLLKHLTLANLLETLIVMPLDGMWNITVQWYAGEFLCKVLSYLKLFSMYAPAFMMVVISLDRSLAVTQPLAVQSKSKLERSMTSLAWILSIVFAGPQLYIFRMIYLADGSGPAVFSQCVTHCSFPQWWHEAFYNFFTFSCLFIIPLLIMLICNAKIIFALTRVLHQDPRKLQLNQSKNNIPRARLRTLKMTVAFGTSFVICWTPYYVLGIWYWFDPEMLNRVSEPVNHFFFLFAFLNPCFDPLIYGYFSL
Assay: Stimulation of testosterone secretion in adult male rats after subcutaneous injection (agonist activity in vivo)
Set-up: exert an agonist activity upon the LH-RH receptors in vivo; from tissue; host or cells: whole animal, adult male Sprague-Dawley rats; species or system Sprague-Dawley rats
Conditions: Table 3; 10 ng/kg subcutaneous in PBS, blood two hours later, male Sprague-Dawley rats; vehicle 4.3 ± 1.2
Square brackets hold non-standard residues; d marks the D form. Peptide text beside a SMILES is read from it. Bta = N[C@@H](Cc1csc2ccccc12)C(=O)O; tBuAla = CC(C)(C)C[C@H](N)C(=O)O; d3Pal = N[C@H](Cc1cccnc1)C(=O)O; pGlu = O=C1CC[C@@H](C(=O)O)N1
For each entry below, report its Total plasma testosterone value.
Report the figure in nmol/L without appending any unit label.

According to the records, this molecule CCNC(=O)[C@@H]1CCCN1C(=O)[C@H](CCCNC(=N)N)NC(=O)[C@H](CC(C)(C)C)N(C)C(=O)[C@@H](CC(C)C)NC(=O)[C@H](Cc1ccc(O)cc1)NC(=O)[C@H](CO)NC(=O)[C@H](Cc1c[nH]c2ccccc12)NC(=O)[C@H](Cc1c[nH]cn1)NC(=O)[C@@H]1CCC(=O)N1 displays Total plasma testosterone of 49.4

Lab note: CCNC(=O)[C@@H]1CCCN1C(=O)[C@H](CCCNC(=N)N)NC(=O)[C@H](CC(C)(C)C)NC(=O)[C@@H](CC(C)C)NC(=O)[C@H](Cc1ccc(O)cc1)NC(=O)[C@H](CO)NC(=O)[C@H](Cc1csc2ccccc12)NC(=O)[C@H](Cc1c[nH]cn1)NC(=O)[C@@H]1CCC(=O)N1 [Example 26] ([pGlu]H[Bta]SY[dL][tBuAla]RP-NHEt) gave Total plasma testosterone of 12.2

The value of Total plasma testosterone measured for the molecule CC(C)(C)C[C@H](NC(=O)[C@@H](Cc1cccnc1)NC(=O)[C@H](Cc1ccc(O)cc1)NC(=O)[C@H](CO)NC(=O)[C@H](Cc1c[nH]c2ccccc12)NC(=O)[C@H](Cc1c[nH]cn1)NC(=O)[C@@H]1CCC(=O)N1)C(=O)N[C@@H](CCCNC(=N)N)C(=O)N1CCC[C@H]1C(=O)NCC(N)=O [Example 20] ([pGlu]HWSY[d3Pal][tBuAla]RPG-NH2) turned out to be 24.9

* * *

Molecular target: LH-RH receptors (membrane fractions of pituitaries from female Sprague Dawley rats) (rat (female Sprague Dawley)) (UniProt P30969)
Test: competition with [125I]-buserelin, rat pituitary membranes; Ki by Cheng-Prusoff
quantity name: pKi

For reference, reported pKi for pGlu-His-Trp-Ser-Tyr-D-Ala-Npg-Arg-Pro-NEt (peptide) stands at 10 -log Ki

# substance AcD-Nal-D-pClPhe-D-Pal-Ser-Tyr-D-HCit-Npg-IprLys-Pro-D-Ala-NH2 (peptide) ; its pKi = 10.1 -log Ki

Form field pKi, entry pGlu-His-Trp-Ser-Tyr-D-Nal-Npg-Arg-Pro-NEt (peptide) : 9.5 -log Ki

pKi measured on pGlu-His-Trp-Ser-Tyr-D-Npg-Npg-Arg-Pro-NEt (peptide) = 8.73 -log Ki

Per the record, pGlu-His-Trp-Ser-Tyr-D-Trp-Npg-Arg-Pro-NEt (peptide) has pKi of 9.79 -log Ki

Reported pKi for pGlu-His-Trp-Ser-Tyr-D-Phe-Npg-Arg-Pro-NEt (peptide) was 9.64 -log Ki

// pKi lookup, substance = AcD-Nal-D-pClPhe-D-Pal-Ser-Tyr-D-Cit-Npg-IprLys-Pro-D-Ala-NH2 (peptide) , result: 9.72 -log Ki
